assayed-target: T1, Anti-PSMA Fab (SEQ ID NOs: 19, 20)
T1 construct: also called 006 PSMA Fab
test-summary: phage ELISA; clonal phage supernatant on biotinylated PSMA Fab captured on neutravidin plates, anti-M13 HRP detection
Define the label as 1.0 when Phage binding ELISA, Anti-PSMA Fab (SEQ ID NOs: 19, 20) signal is strictly less than 1 and as 0.0 in all remaining cases.

Strictly below 1: is that where Phage binding ELISA, Anti-PSMA Fab (SEQ ID NOs: 19, 20) signal of PLCGTEEVWWECRL [Phage-1747] sits?
0.0

Criterion: Phage binding ELISA, Anti-PSMA Fab (SEQ ID NOs: 19, 20) signal strictly below 1. Is it met by DCHWNKATWWMDCE [Phage-1757] ?
0.0

Answer whether the binder MCFVTGWGVPDDCN [Phage-1758] has Phage binding ELISA, Anti-PSMA Fab (SEQ ID NOs: 19, 20) signal strictly less than 1
1.0

Bench note: check whether MCQWDKINYWMDCD [Phage-1755] shows Phage binding ELISA, Anti-PSMA Fab (SEQ ID NOs: 19, 20) signal below 1
0.0

Decide: Phage binding ELISA, Anti-PSMA Fab (SEQ ID NOs: 19, 20) signal of FWECYSSFCRFVEG [Phage-1746] strictly below 1?
0.0

Find out if reported Phage binding ELISA, Anti-PSMA Fab (SEQ ID NOs: 19, 20) signal for QCVWDRGTWWMACD [Phage-1759] is less than 1
1.0

For this binder, is Phage binding ELISA, Anti-PSMA Fab (SEQ ID NOs: 19, 20) signal lower than 1? MCQWDELNYWMDCD [Phage-1752]
0.0

Is Phage binding ELISA, Anti-PSMA Fab (SEQ ID NOs: 19, 20) signal of LTRCVPDWMCYRAV [Phage-1748] strictly below 1?
0.0

Please check: Phage binding ELISA, Anti-PSMA Fab (SEQ ID NOs: 19, 20) signal for QLPCHYWGEWCPQA [Phage-1745] , strictly under 1 or not?
0.0

Would you kindly verify if Phage binding ELISA, Anti-PSMA Fab (SEQ ID NOs: 19, 20) signal of QCTWNEKTWWMECE [Phage-1754] is strictly less than 1?
0.0

Dear reviewer, please state whether SKLLCVPPWMCYHV [Phage-1744] has Phage binding ELISA, Anti-PSMA Fab (SEQ ID NOs: 19, 20) signal strictly beneath 1.
1.0

Phage binding ELISA, Anti-PSMA Fab (SEQ ID NOs: 19, 20) signal under 1? Item: QCVWDLTNYWMNCD [Phage-1756]
0.0

Could you please tell me whether Phage binding ELISA, Anti-PSMA Fab (SEQ ID NOs: 19, 20) signal recorded for HCLWHESSGRVLCF [Phage-1742] is less than 1?
0.0

Quick check: Phage binding ELISA, Anti-PSMA Fab (SEQ ID NOs: 19, 20) signal of MEYCSFHRFTCVLW [Phage-1743] under 1?
0.0

Check if Phage binding ELISA, Anti-PSMA Fab (SEQ ID NOs: 19, 20) signal falls below 1 for WCWVQDDRRHVVCG [Phage-1751] .
0.0

Phage binding ELISA, Anti-PSMA Fab (SEQ ID NOs: 19, 20) signal under 1? Item: QCVWDNFNYWMDCD [Phage-1753]
1.0

Does ILPCHWYTSDCPQH (also called Peptide-200) [Phage-1750] have Phage binding ELISA, Anti-PSMA Fab (SEQ ID NOs: 19, 20) signal strictly under 1?
0.0
